For each record, write down the corresponding Emax (%).
- TESTED ON: UniProt O43614
- TEST SUMMARY: IPOne (IP-1) assay in CHO cells expressing human OX2R
- Type: cell-based
- CONDITIONS: percentage of mean max effect of a reference compound at 1 uM (100% activity by comparison to Orexin A), human OX2R
One number for each entry, in %.

Field: example entries. Status: answers known.
Please give the measured Emax (%) for this compound: COC(=O)N1[C@H](C)C[C@H](NS(C)(=O)=O)[C@@H]1COC1CCC2(c3ncccn3)CC2C1 (single isomer, unassigned) [Example 16]
102.2

Please give the measured Emax (%) for this compound: COC(=O)N1[C@H](C)C[C@H](NS(C)(=O)=O)[C@@H]1COC1CCC2(c3ccccc3)CC2C1 (single isomer, unassigned)
100.5

Could you now consider this next compound?
Please give the measured Emax (%) for this compound: COC(=O)N1[C@H](C)C[C@H](NS(C)(=O)=O)[C@@H]1COC1CCC2(c3ncccn3)CC2C1 (single isomer, unassigned) [Example 17]
89.7

* * *

- TESTED ON: human OX2R (Homo sapiens (Human), UniProt O43614)
- Sequence (O43614 whole entry): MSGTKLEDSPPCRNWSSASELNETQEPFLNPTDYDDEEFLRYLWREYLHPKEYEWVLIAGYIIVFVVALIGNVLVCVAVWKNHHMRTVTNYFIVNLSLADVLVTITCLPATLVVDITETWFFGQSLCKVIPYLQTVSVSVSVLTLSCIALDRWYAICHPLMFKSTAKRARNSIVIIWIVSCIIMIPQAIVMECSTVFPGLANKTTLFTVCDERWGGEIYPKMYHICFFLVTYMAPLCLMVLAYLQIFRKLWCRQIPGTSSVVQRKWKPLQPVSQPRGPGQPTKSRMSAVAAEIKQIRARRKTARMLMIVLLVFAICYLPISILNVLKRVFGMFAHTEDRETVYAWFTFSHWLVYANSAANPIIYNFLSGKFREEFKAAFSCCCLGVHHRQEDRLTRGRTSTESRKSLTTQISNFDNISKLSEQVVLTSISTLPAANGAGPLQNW
- TEST SUMMARY: IPOne (IP-1) assay in CHO cells expressing human OX2R
- Type: cell-based
- CONDITIONS: CHO cells expressing human OX2R; IP-One detection; 2 hours incubation; EC50 = inflection point of four parameter logistic fit; read-out: hOX2R_IP_IC50
REPORTED METRIC: IC50 (nM)
Give bare numbers, in nM.

Hello, I am looking for reported IC50 with human OX2R (Homo sapiens (Human), UniProt O43614) for CC(C)OC(=O)N1[C@H](C)C[C@H](NS(=O)(=O)CF)[C@@H]1CO[C@H]1CC[C@@]2(c3ncc(F)cn3)C[C@H]2C1 (single isomer, unassigned) . Could you help?
1

Hello, I am looking for reported IC50 with human OX2R (Homo sapiens (Human), UniProt O43614) for CC(C)OC(=O)N1CCC[C@H](NS(=O)(=O)CF)[C@@H]1CO[C@H]1CC[C@@]2(c3ncc(F)cn3)C[C@H]2C1 (single isomer, unassigned) . Could you help?
0.37

Hello, I am looking for reported IC50 with human OX2R (Homo sapiens (Human), UniProt O43614) for COC(=O)N1[C@H](C)C[C@H](NS(=O)(=O)N(C)C)[C@@H]1COC1CCC2(c3ncccn3)CC2C1 (single isomer, unassigned) [Example 186] . Could you help?
142

Hello, I am looking for reported IC50 with human OX2R (Homo sapiens (Human), UniProt O43614) for COC(=O)N1[C@@H]2CCC[C@@H]2[C@H](NS(C)(=O)=O)[C@@H]1CO[C@H]1CC[C@@]2(c3ncc(F)cn3)C[C@H]2C1 (single isomer, unassigned) . Could you help?
1.8

Could you now consider this next molecule?
Hello, I am looking for reported IC50 with human OX2R (Homo sapiens (Human), UniProt O43614) for CC(C)OC(=O)N1[C@H](C)C[C@H](NS(=O)(=O)C(F)F)[C@@H]1CO[C@@H]1CC[C@]2(c3ncc(F)cn3)C[C@@H]2C1 (single isomer, unassigned) . Could you help?
3.3

* * *

- TESTED ON: human OX2R (Homo sapiens (Human), UniProt O43614)
- TEST SUMMARY: IPOne (IP-1) assay in CHO cells expressing human OX2R
- Assay type: cell-based
- CONDITIONS: CHO, percentage of mean max effect of a reference compound at 1 uM (100% activity by comparison to Orexin A), human OX2R; read-out: Emax (%)
REPORTED METRIC: Emax (%)
One number for each entry, in %.

Field: example entries. Status: answers known.
Hello, I am looking for reported Emax with human OX2R (Homo sapiens (Human), UniProt O43614) for `COC(=O)N1[C@H](C)C[C@H](NS(=O)(=O)CC(C)C)[C@@H]1CO[C@H]1CC[C@@]2(c3ncc(F)cn3)C[C@H]2C1` . Could you help?
101

Hello, I am looking for reported Emax with human OX2R (Homo sapiens (Human), UniProt O43614) for COC(=O)N1[C@H](C(F)F)C[C@H](NS(C)(=O)=O)[C@@H]1CO[C@H]1CC[C@@]2(c3ncc(F)cn3)C[C@H]2C1 (single isomer, unassigned) . Could you help?
101

Each of the following entries comes with a recorded value; kindly state Emax for each.
1. COC(=O)N1[C@H](C)C[C@H](NS(=O)(=O)N(C)C)[C@@H]1COC1CCC2(c3ccccn3)CC2C1 (stereo partly shown)
2. COC(=O)N1[C@H](C)C[C@H](NS(C)(=O)=O)[C@@H]1CO[C@@H]1CC[C@]2(c3ncc(Cl)cn3)C[C@@H]2C1
3. COC(=O)N1[C@H](C)C[C@H](NS(=O)(=O)N(C)C)[C@@H]1COC1CCC2(c3cc(F)cc(F)c3)CC2C1 (stereo partly shown)
4. COC(=O)N1[C@H](C(F)F)C[C@H](NS(=O)(=O)C(C)C)[C@@H]1COC1CCC2(c3ncc(F)cn3)CC2C1 (stereo partly shown)
5. COC(=O)N1[C@H](C)C[C@H](NS(C)(=O)=O)[C@@H]1COC1CCC2(c3ncc(Cl)cn3)CC2C1 (stereo partly shown)

99
98.7
97.3
102
103

Each of the following entries comes with a recorded value; kindly state Emax for each.
1. COC(=O)N1[C@H](C)C[C@H](NS(=O)(=O)N(C)C)[C@@H]1COC1CCC2(c3cnccn3)CC2C1 (single isomer, unassigned) [Example 11]
2. CC(C)OC(=O)N1[C@H](C)C[C@H](NS(=O)(=O)CF)[C@@H]1COC1CCC2(c3ncc(Br)cn3)CC2C1 (stereo partly shown) [Example 108]
3. COC(=O)N1[C@H](C)C[C@H](NS(=O)(=O)N(C)C)[C@@H]1COC1CCC2(c3ncccn3)CC2C1 (stereo partly shown) [Example 6]
4. CCS(=O)(=O)N[C@H]1[C@H]2CCC[C@H]2N(C(=O)OC)[C@H]1COC1CCC2(c3ncc(F)cn3)CC2C1 (stereo partly shown)

1. 96.1
2. 105
3. 101
4. 101

Each of the following entries comes with a recorded value; kindly state Emax for each.
1. COC(=O)N1[C@H](C)C[C@H](NS(C)(=O)=O)[C@@H]1CO[C@H]1CC[C@@]2(c3ncc(C#N)cn3)C[C@H]2C1
2. COC(=O)N1[C@H](C)C[C@H](NS(=O)(=O)C(F)F)[C@@H]1CO[C@@H]1CC[C@]2(c3ncccn3)C[C@@H]2C1

103
101
